test: RMG-1 ovarian cancer cell viability loss – cherry-pick, dose response (AID 687029); conditions: RMG-1 viability, CellTiterGlo ATP luminescence, 96 h; series mostly up to 35 µM;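 further: cells exposed to compound for 96 hours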
Measured potencies and affinities stand elsewhere. Calls of active or inactive are those of the source.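 How the source made its calls: active means signal drop whose fitted half-maximal concentration is at most twice the top valid dose, in every test run; inconclusive means mixed calls across runs, poor fit, or flat 30 to 70% inhibition; inactive means wrong direction, flat within 30%, or potency beyond limit.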
Measurement kind: outcome

Completed entries (count: 5):
| Compound | outcome |
| --- | --- |
| Cc1ccc(OC(=O)N(C)C[C@@H]2OCc3ccccc3-c3c(n(C)c4ccccc34)C(=O)N([C@@H](C)CO)C[C@H]2C)cc1 | inactive |
| O=c1[nH]c2ccccc2n1C1CCN(C(CCc2ccccc2)c2nnnn2Cc2ccccc2)CC1 (stereo not drawn) | inactive |
| O=c1[nH]c2ccccc2n1C1CCN(C(c2ccccc2OC(F)(F)F)c2nnnn2-c2ccc3c(c2)OCCO3)CC1 (stereo not drawn) | inactive |
| O=C(Cc1ccccn1)N1CCCCN2[C@@H](CO)[C@@H](c3ccc(-c4ccccc4F)cc3)[C@@H]2C1 | inactive |
| CCC1CN2CCc3cc(OC)c(OC)cc3C2CC1CC1NCCc2c1[nH]c1ccc(O)cc21 (stereo not drawn) | inactive |

Q. Report outcome for CN(C)CC(C(=O)Cc1ccccc1)c1ccccc1 (stereo not drawn) please.
A. inactive

Q. # iterate: CC1=C(N2CC2)C(=O)C(CO)=C(N2CC2)C1=O
A. inactive

Q. Another compound to look at: COc1ccc(CC2C(=O)NC(C)C(=O)N(C)C3C(=O)N(C)C(Cc4ccc(O)c(c4)Oc4ccc(cc4)C3O)C(=O)NC(C)C(=O)NC(C)C(=O)N2C)cc1 (stereo not drawn)
A. inactive

###

tested on: wheat germ agglutinin (Triticum aestivum), Alexa647-labelled; test: Alexa647-WGA lectin binding to printed small molecules – biochemical, small-molecule microarray, 635/667 nm fluorescence, artefact control for SMM control-protein annotation, profiling panel (AID 1140); settings: WGA-A647 binding, 635 nm fluorescence, higher = more signal;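 further: score merges 667 nm feature emission with signal to noise over triplicate slides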
So I've got a bunch of compounds here, and I need their composite z-score values.
Just the number, please.

Q. Entry CCCc1cc2c(n1Cc1ccco1)C(C)C1CN(C(=O)c3ccccc3)C(C)(C(=O)OC)C21 (stereo not given) , system wheat germ agglutinin (Triticum aestivum), Alexa647-labelled: what composite z-score was measured?
A. 1.29

Q. Same again, this time with C=C(CC1(CNP(=O)(c2ccccc2)c2ccccc2)CC1)c1ccccc1
A. 0.11

Q. Then what about the compound CCCc1cc2c(n1CCO)C(C)C1CN(C(=O)c3ccccc3)C(C)(C(=O)OC)C21 (stereo not given) ?
A. 1.25

Q. // next record CN1CCC(c2ccc(CO)cc2)=CC1C1CC1 (stereo not given)
A. -0.0579

Q. Lookup CCOC(=O)[C@H]1CC=C2C(=O)Oc3ccccc3[C@@H]21
A. -0.351

Q. Next up: COC(=O)[C@@]1(Cc2ccccc2)[C@H]2c3cc(C(=O)N(C)C)n(C)c3C[C@H]2CN1C(=O)c1ccccc1
A. 0.668

Q. Another compound to check: CCCC=C(CCC)[C@@H](NP(=O)(c1ccccc1)c1ccccc1)c1ccccc1
A. 0.207

Q. And then OCc1ccc(C2=CC(C3CC3)N(Cc3sc4ccccc4c3Cl)CC2)cc1 (stereo not given) , what is it?
A. 0.42

Q. Now give it for COC(=O)[C@H]1[C@@H](O)[C@@]2(O)c3c(OC)cc(OC)cc3O[C@@]2(c2ccc(OC)cc2)[C@@H]1c1ccccc1 too.
A. 0.0623

Q. Another: C=C(CC1(C(C)NP(=O)(c2ccccc2)c2ccccc2)CC1)c1ccccc1 (stereo not given)
A. 0.501

###

assay: change in splice reporter luminescence, either direction, cell-based, HEK293, spliceosome inhibition project, primary screen (AID 1101); settings: HEK293 splicing luciferase reporter, 24 h; higher = more signal, called active from +8 up or from −8 down unless noted;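 further: HEK293 cells carrying a splicing-competent luciferase reporter gene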
The source made the active and inactive calls.
Measurement kind: z-score

Q. Which value of z-score has been reported for COC(=O)[C@H]1[C@@H](O)[C@@]2(O)c3c(OC)cc(OC)cc3O[C@@]2(c2ccc(OC)cc2)[C@@H]1c1ccccc1 in the records?
A. -1.89 (inactive)

Q. Also O=P(c1ccccc1)(c1ccccc1)N1CC2(CC2)CC(O)(c2ccccc2)C1 (stereo unspecified) ?
A. -3.24 (inactive)

Q. Field entry: OCc1ccc(C2=CC(c3cccs3)N(Cc3cccc(OC(F)(F)F)c3)CC2)cc1 (stereo unspecified)
A. -1.18 (inactive)

Q. Input COC(=O)[C@H]1[C@H](c2ccccc2)C(=O)[C@]2(O)c3ccccc3O[C@@]12c1ccccc1
A. -1.58 (inactive)

Q. Subsequent entry: COc1cc2c(cc1O)C(C)N(C)CC2 (stereo unspecified)
A. 0.844 (inactive)

Q. Here is the next compound: C[C@H]1O[C@H]2C3=C(C(=O)[C@@H]4O[C@@H]4[C@@H]3O)[C@@H]1[C@@H]1[C@@H](C)OC=C3[C@@H](O)[C@H]4O[C@H]4C(=O)[C@]312
A. -1.89 (inactive)

Q. Can you check COc1cc2c(cc1O)C=[N+](C)CC2 next?
A. 0.131 (inactive)

Q. Here is the next compound: CCOC(=O)[C@H]1CC=C2C(=O)Oc3ccccc3[C@@H]21
A. -0.0119 (inactive)

Q. // same read-out, input: COC(=O)NCC=Cc1nc(CCC=CC(=O)O[C@H]2CC3CC(=O)O[C@@H](C=CCC(C)C)C[C@@H]4CC[C@H](C)[C@@H](C[C@@H](OC)C[C@H](C2)O3)O4)co1
A. 0.659 (inactive)

Q. # iterate: COC(=O)[C@@]1(Cc2ccc(F)cc2)[C@H]2c3cc(C(=O)N(C)C)[nH]c3C[C@H]2CN1C(=O)c1ccccc1
A. -0.825 [setting not given] (inactive)

Q. Also CN1CCc2nc(CO)c(CO)cc2C1 , if possible.
A. 0.261 (inactive)

Q. Also, CN1CCC(c2ccc(CO)cc2)=CC1C1CC1 (stereo unspecified) please.
A. 0.596 (inactive)

Q. Same lookup for C[C@@H]1OC=C2[C@@H](O)[C@H]3O[C@H]3C(=O)[C@]23[C@H]1[C@H]1C2=C([C@@H](O)[C@H]4O[C@H]4C2=O)[C@@H]3O[C@@H]1C , please.
A. 0.802 (inactive)

Q. Then this compound: COC(=O)[C@@]1(Cc2ccccc2)[C@H]2c3cc(C(=O)N(C)C)n(C)c3C[C@H]2CN1C(=O)c1ccccc1
A. -0.806 (inactive)

Q. Similarly, C[C@@H]1Cc2c(cnc3c2CN(C)CC3)CO1 ?
A. -0.377 (inactive)

Q. Same thing, different compound: CCCC=C(CCC)[C@@H](NP(=O)(c1ccccc1)c1ccccc1)c1ccccc1
A. -1.55 (inactive)

Q. Please give the result for CCCc1cc2c(n1CCO)C(C)C1CN(C(=O)c3ccccc3)C(C)(C(=O)OC)C21 (stereo unspecified) too.
A. -1.08 (inactive)

Q. What about this compound? CCc1cc2c(nc1CC)CCN(CCC(C)=NOC)C2
A. 0.0386 (inactive)

Q. Likewise for CCCc1cc2c(n1Cc1cccc(Cl)c1)C(C)C1CN(C(=O)c3ccccc3)C(C)(C(=O)OC)C21 (stereo unspecified) ?
A. -3.44 (inactive)

Q. Another compound: C=C(CC1(C(C)NP(=O)(c2ccccc2)c2ccccc2)CC1)c1ccccc1 (stereo unspecified)
A. -4.59 (inactive)

Q. // query: CCCc1cc2c(n1Cc1ccc(C)cc1)C(C)C1CN(C(=O)c3ccccc3)C(C)(C(=O)OC)C21 (stereo unspecified)
A. -3.92 (inactive)

###

assay: growth effects on S. cerevisiae YJM789 – YJM789 clinical isolate, OD600, 24 h, basal, primary screen (AID 1089); details: called active from +8 up or from −8 down unless noted;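 further: growth of clinical yeast isolate S. cerevisiae YJM 789 seeded 1000 cells per well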
Activity calls are given as the source filed them.
Return exactly one item of class 1 for active, class 0 for inactive

Q. Per the assay record, what outcome was assigned to CCCC=C(CCC)[C@@H](NP(=O)(c1ccccc1)c1ccccc1)c1ccccc1 ?
A. class 0

Q. Please do the same for COC(=O)[C@@]1(Cc2ccccc2)[C@H]2c3cc(C(=O)N(C)C)n(C)c3C[C@H]2CN1C(=O)c1ccccc1 as well.
A. class 0

Q. Please give the result for C[C@@H]1OC=C2[C@@H](O)[C@H]3O[C@H]3C(=O)[C@]23[C@H]1[C@H]1C2=C([C@@H](O)[C@H]4O[C@H]4C2=O)[C@@H]3O[C@@H]1C too.
A. class 0

Q. What do you get for CCCc1cc2c(n1Cc1cccc(Cl)c1)C(C)C1CN(C(=O)c3ccccc3)C(C)(C(=O)OC)C21 (centres undefined) ?
A. class 0

Q. Query OCc1ccc(C2=CC(c3cccs3)N(Cc3cccc(OC(F)(F)F)c3)CC2)cc1 (centres undefined) next
A. class 0

Q. Input COC(=O)[C@H]1[C@@H](O)[C@@]2(O)c3c(OC)cc(OC)cc3O[C@@]2(c2ccc(OC)cc2)[C@@H]1c1ccccc1
A. class 0

Q. Try this compound too: CN1CCc2nc(CO)c(CO)cc2C1
A. class 0

Q. And what about the compound CCOC(=O)[C@H]1CC=C2C(=O)Oc3ccc(Br)cc3[C@@H]21 ?
A. class 1

Q. For C[C@@H]1Cc2c(cnc3c2CN(C)CC3)CO1 then?
A. class 0

Q. Next up: CN1CCC(c2ccc(CO)cc2)=CC1C1CC1 (centres undefined)
A. class 0

Q. Same question for COC(=O)C1(C)C=C2C(=C(C)C(=O)C2C)CN1 (centres undefined) please.
A. class 0

Q. Also need COC(=O)[C@H]1C(=O)c2ccccc2O[C@@](C(=O)OC)(c2ccccc2)[C@@H]1c1ccccc1 , thanks.
A. class 0

Q. Same question for CCCc1cc2c(n1CCO)C(C)C1CN(C(=O)c3ccccc3)C(C)(C(=O)OC)C21 (centres undefined) please.
A. class 0

Q. Query COC(=O)[C@H]1[C@H](c2ccccc2)C(=O)[C@]2(O)c3ccccc3O[C@@]12c1ccccc1 next
A. class 0

Q. What would you report for CCCC[C@@H]1C[C@H]1[C@@H](NP(=O)(c1ccccc1)c1ccccc1)c1ccc(Cl)cc1 ?
A. class 0

Q. # iterate: COC(=O)NCC=Cc1nc(CCC=CC(=O)O[C@H]2CC3CC(=O)O[C@@H](C=CCC(C)C)C[C@@H]4CC[C@H](C)[C@@H](C[C@@H](OC)C[C@H](C2)O3)O4)co1
A. class 0

Q. And then c1ccc(-c2cc3c(nc2-c2ccccc2)CCNC3)cc1 , what is it?
A. class 0

Q. // repeat for C=C(CC1(C(C)NP(=O)(c2ccccc2)c2ccccc2)CC1)c1ccccc1 (centres undefined) and report
A. class 0

Q. Query COC(=O)[C@@]1(Cc2ccccc2)[C@H]2c3cc(C(=O)N(C)C)[nH]c3C[C@H]2CN1C(=O)c1ccccc1 next
A. class 0
